Entries annotated with measured pEC50
TESTED_ON: human cannabinoid receptor type 2 (Homo sapiens)
Construct: expressed in transfected cells; membrane preparation
Sequence (P34972 whole entry): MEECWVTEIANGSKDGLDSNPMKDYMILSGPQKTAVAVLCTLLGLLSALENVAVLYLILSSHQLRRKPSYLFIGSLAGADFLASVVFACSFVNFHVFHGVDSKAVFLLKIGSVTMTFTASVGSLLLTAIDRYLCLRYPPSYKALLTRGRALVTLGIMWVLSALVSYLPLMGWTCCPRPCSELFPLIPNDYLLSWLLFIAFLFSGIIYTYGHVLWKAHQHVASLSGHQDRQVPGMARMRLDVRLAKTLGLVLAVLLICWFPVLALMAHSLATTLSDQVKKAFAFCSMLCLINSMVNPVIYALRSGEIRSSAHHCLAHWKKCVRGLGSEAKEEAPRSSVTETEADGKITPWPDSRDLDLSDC
PROTOCOL_NOTES: Human CB2 Radioligand Binding Assay
PARTICULARS: competition with [3H] CP-55,940; membranes from stably transfected CHO CB2 cells; read-out: CB2 Ligand Binding Asssay EC50
pEC50: −log10 of the molar value.

Guide cases for pEC50, answers given:
COMPOUND_STRUCTURE_STRING: Clc1ccc(-c2nc(N3CCCC3)c3ccccc3n2)cc1
pEC50: > 6.00

COMPOUND_STRUCTURE_STRING: CN1CCN(c2nc(CNS(=O)(=O)c3ccc4ccccc4c3)nc3ccccc23)CC1
pEC50: < 6.00

COMPOUND_STRUCTURE_STRING: CC(=O)N1CCN(c2nc(-c3ccc(F)c(F)c3)nc3ccccc23)CC1
pEC50: > 6.00

COMPOUND_STRUCTURE_STRING: Clc1ccccc1-c1nc(NCCCN2CCOCC2)c2ccccc2n1
pEC50: < 6.00

COMPOUND_STRUCTURE_STRING: CCc1ccc2nc(-c3ccccc3Cl)nc(N3CCCCC3)c2c1
pEC50: > 6.00

Form: compound = "Cn1ccnc1C(=O)N1CCN(c2nc(-c3ccccc3Cl)nc3ccccc23)CC1" ; pEC50 = < 6.00

Form: compound = "COc1ccc2nc(-c3ccccc3F)nc(N3CCN(C(C)=O)CC3)c2c1" ; pEC50 = > 6.00

Form: compound = "CC(C)(C)c1ccc(-c2nc(N3CCOCC3)c3ccccc3n2)cc1" ; pEC50 = > 6.00

Form: compound = "O=C(NCc1nc(N2CCCC2)c2ccccc2n1)Nc1ccc(Cl)c(C(F)(F)F)c1" ; pEC50 = < 6.00

Form: compound = "COC(=O)c1ccc2nc(-c3ccccc3Cl)nc(Nc3ccccc3C)c2c1" ; pEC50 = < 6.00

Form: compound = "Cc1ccccc1-c1nc(N2CCOCC2)c2ccccc2n1" ; pEC50 = < 6.00

Form: compound = "CCN(CC)C(=O)c1ccc2c(N3CCN(C(C)=O)CC3)nc(-c3ccccc3Cl)nc2c1" ; pEC50 = < 6.00

Form: compound = "CN1CCN(c2nc(-c3ccccc3Cl)nc3c(Cl)cccc23)CC1" ; pEC50 = < 6.00

Form: compound = "CCOC(=O)N1CCN(c2nc(C3CCCCC3)nc3ccc(OC)cc23)CC1" ; pEC50 = < 6.00

Form: compound = "CN1CCN(c2nc(-c3ccccc3Cl)nc3ccccc23)CC1=O" ; pEC50 = < 6.00

Form: compound = "COc1cccc2nc(-c3ccccc3Cl)nc(N3CCN(C(C)=O)CC3)c12" ; pEC50 = > 6.00

* * *

TESTED_ON: human cannabinoid receptor type 2 (Homo sapiens)
Construct: expressed in transfected cells; membrane preparation
PROTOCOL_NOTES: Human CB2 Radioligand Binding Assay
PARTICULARS: competition with [3H] CP-55,940; membranes from stably transfected CHO CB2 cells; read-out: CB2 Ligand Binding Asssay EC50
Entries annotated with measured EC50

COMPOUND_STRUCTURE_STRING: O=C1CN(c2nc(-c3ccccc3Cl)nc3ccccc23)CCN1
TESTED_ON: human cannabinoid receptor type 2 (Homo sapiens)
EC50: > 1000 nM
//
COMPOUND_STRUCTURE_STRING: CCCCN(C)c1nc(-c2ccccc2Cl)nc2ccccc12
TESTED_ON: human cannabinoid receptor type 2 (Homo sapiens)
EC50: < 1000 nM
//
COMPOUND_STRUCTURE_STRING: CN1CCN(c2nc(-c3ccc(C(C)(C)C)cc3)nc3ccccc23)CC1
TESTED_ON: human cannabinoid receptor type 2 (Homo sapiens)
EC50: < 1000 nM
//
COMPOUND_STRUCTURE_STRING: O=S(=O)(NCc1nc(N2CCOCC2)c2ccccc2n1)c1ccccc1Br
TESTED_ON: human cannabinoid receptor type 2 (Homo sapiens)
EC50: < 1000 nM
//
COMPOUND_STRUCTURE_STRING: CN1CCN(c2nc(-c3ccccc3Cl)nc3ccc(Br)cc23)CC1
TESTED_ON: human cannabinoid receptor type 2 (Homo sapiens)
EC50: < 1000 nM
//
COMPOUND_STRUCTURE_STRING: O=S(=O)(NCc1nc(N2CCOCC2)c2ccccc2n1)c1ccc(Cl)cc1Cl
TESTED_ON: human cannabinoid receptor type 2 (Homo sapiens)
EC50: > 1000 nM
//
COMPOUND_STRUCTURE_STRING: COc1ccc2c(N3CCCC3)nc(C3CCCCC3)nc2c1
TESTED_ON: human cannabinoid receptor type 2 (Homo sapiens)
EC50: > 1000 nM

Next:
Form: compound = "CCOC(=O)N1CCN(c2nc(-c3ccccc3Cl)nc3cc(C(=O)NC(C)C)ccc23)CC1" ; EC50 = > 1000 nM
